Where these numbers come from: the kinase profiling compilation of Christmann-Franck et al. (2016)

Target: PRKCA (human)
Settings: compound 1.0 µM
Listing of recorded per cent of control by entry.
Endpoint: per cent of control (%)

Compound smiles	Measurement target	Endpoint	Units label	Value
COc1ccc(-c2ccc3c(N4CCOCC4)nc(N4C[C@@H](C)O[C@@H](C)C4)nc3n2)cc1CO	PRKCA (human)	per cent of control	%	106
CCC(=O)N1CCN(c2ccc(-n3c(=O)ccc4cnc5ccc(-c6cnc7ccccc7c6)cc5c43)cc2C(F)(F)F)CC1	PRKCA (human)	per cent of control	%	83
CC(C)n1nc(-c2cc3cc(O)ccc3[nH]2)c2c(N)ncnc21	PRKCA (human)	per cent of control	%	13
COC(=O)Nc1ccc(-c2nc(N3CCOCC3)c3cnn(C4CCN(C(=O)OC)CC4)c3n2)cc1	PRKCA (human)	per cent of control	%	81

====

Target: SYK (human) (UniProt P43405)
Conditions: compound 10.0 µM
Listing of recorded per cent of control by entry.

Compound smiles	per cent of control
CC(C)n1nc(-c2cc3cc(O)ccc3[nH]2)c2c(N)ncnc21	61%
COC(=O)Nc1ccc(-c2nc(N3CCOCC3)c3cnn(C4CCN(C(=O)OC)CC4)c3n2)cc1	127%
CCC(=O)N1CCN(c2ccc(-n3c(=O)ccc4cnc5ccc(-c6cnc7ccccc7c6)cc5c43)cc2C(F)(F)F)CC1	68%
COc1ccc(-c2ccc3c(N4CCOCC4)nc(N4C[C@@H](C)O[C@@H](C)C4)nc3n2)cc1CO	83%

====

Biological target: STK38L (human) (UniProt Q9Y2H1)
Sequence (Q9Y2H1 whole entry, looked up): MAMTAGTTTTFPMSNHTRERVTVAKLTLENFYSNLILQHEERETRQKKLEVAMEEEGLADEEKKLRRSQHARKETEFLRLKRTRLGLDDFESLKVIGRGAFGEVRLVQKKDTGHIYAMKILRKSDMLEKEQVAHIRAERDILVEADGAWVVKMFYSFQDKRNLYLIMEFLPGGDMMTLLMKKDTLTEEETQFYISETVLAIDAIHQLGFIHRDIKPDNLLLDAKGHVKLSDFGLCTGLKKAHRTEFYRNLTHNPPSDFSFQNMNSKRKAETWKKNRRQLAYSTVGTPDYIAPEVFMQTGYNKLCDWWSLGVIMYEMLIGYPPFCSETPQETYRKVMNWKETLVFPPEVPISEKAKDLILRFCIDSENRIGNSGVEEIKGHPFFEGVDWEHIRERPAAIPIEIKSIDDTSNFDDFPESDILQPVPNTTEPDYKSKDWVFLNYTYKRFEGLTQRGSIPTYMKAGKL
Assay: KINOMEscan competition binding
Details: compound 10.0 µM
Endpoint: kinase still bound, per cent of control (%)

Compound smiles	Value
CCC(=O)N1CCN(c2ccc(-n3c(=O)ccc4cnc5ccc(-c6cnc7ccccc7c6)cc5c43)cc2C(F)(F)F)CC1	94
COc1ccc(-c2ccc3c(N4CCOCC4)nc(N4C[C@@H](C)O[C@@H](C)C4)nc3n2)cc1CO	95
COC(=O)Nc1ccc(-c2nc(N3CCOCC3)c3cnn(C4CCN(C(=O)OC)CC4)c3n2)cc1	97
CC(C)n1nc(-c2cc3cc(O)ccc3[nH]2)c2c(N)ncnc21	63

====

Biological target: CSK (human) (UniProt P41240)
Sequence (P41240 whole entry, looked up): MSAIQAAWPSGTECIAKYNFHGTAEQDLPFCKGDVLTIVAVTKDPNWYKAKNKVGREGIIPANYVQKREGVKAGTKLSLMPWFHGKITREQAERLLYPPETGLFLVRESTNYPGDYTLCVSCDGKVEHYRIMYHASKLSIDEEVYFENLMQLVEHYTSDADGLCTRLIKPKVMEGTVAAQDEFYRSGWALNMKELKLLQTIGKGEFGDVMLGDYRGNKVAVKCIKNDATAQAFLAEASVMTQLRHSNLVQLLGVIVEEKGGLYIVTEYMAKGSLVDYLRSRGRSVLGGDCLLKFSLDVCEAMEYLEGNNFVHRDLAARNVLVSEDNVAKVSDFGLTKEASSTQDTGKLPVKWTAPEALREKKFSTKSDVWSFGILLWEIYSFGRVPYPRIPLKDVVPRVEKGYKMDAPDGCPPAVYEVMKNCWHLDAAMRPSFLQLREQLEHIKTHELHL
Details: compound 10.0 µM
Listing of recorded per cent of control by entry.

Compound smiles	Measurement target	per cent of control (%)
COC(=O)Nc1ccc(-c2nc(N3CCOCC3)c3cnn(C4CCN(C(=O)OC)CC4)c3n2)cc1	CSK (human) (UniProt P41240)	106
CCC(=O)N1CCN(c2ccc(-n3c(=O)ccc4cnc5ccc(-c6cnc7ccccc7c6)cc5c43)cc2C(F)(F)F)CC1	CSK (human) (UniProt P41240)	83
CC(C)n1nc(-c2cc3cc(O)ccc3[nH]2)c2c(N)ncnc21	CSK (human) (UniProt P41240)	34
COc1ccc(-c2ccc3c(N4CCOCC4)nc(N4C[C@@H](C)O[C@@H](C)C4)nc3n2)cc1CO	CSK (human) (UniProt P41240)	99

====

Target: IRAK1 (human)
Assay: KINOMEscan competition binding
Settings: compound 10.0 µM

Compound smiles	Measurement target	kinase still bound, per cent of control, %
COC(=O)Nc1ccc(-c2nc(N3CCOCC3)c3cnn(C4CCN(C(=O)OC)CC4)c3n2)cc1	IRAK1 (human)	100
CCC(=O)N1CCN(c2ccc(-n3c(=O)ccc4cnc5ccc(-c6cnc7ccccc7c6)cc5c43)cc2C(F)(F)F)CC1	IRAK1 (human)	100
CC(C)n1nc(-c2cc3cc(O)ccc3[nH]2)c2c(N)ncnc21	IRAK1 (human)	25
COc1ccc(-c2ccc3c(N4CCOCC4)nc(N4C[C@@H](C)O[C@@H](C)C4)nc3n2)cc1CO	IRAK1 (human)	100
